- targetOfAssay: Human MMP13 (Homo sapiens, UniProt P45452)
- Construct: purchased Chemicon CC068
- testDetails: MMP13 inhibition experiment
- Format: biochemical
- conditionContext: concentration required for 50% inhibition of enzyme activity; read-out: IC50 value MMP-13
Please respond with reported pIC50 for every item in the list.
# pIC50: negative log10 of molar concentration; output just the value

q: Short answer please: pIC50, Human MMP13 (Homo sapiens, UniProt P45452), entry Cc1cc(COc2ccc(S(=O)(=O)CC(C=C3CCN(CC(C)C)CC3)N(O)C=O)cc2)c2ccccc2n1 (stereo not shown)
a: 4.40

q: Short answer please: pIC50, Human MMP13 (Homo sapiens, UniProt P45452), entry Cc1cc(COc2ccc(S(=O)(=O)CC([C@H]3CSC(=O)N3C)N(O)C=O)cc2)c2ccccc2n1 (stereo partly shown)
a: 4.59

q: Short answer please: pIC50, Human MMP13 (Homo sapiens, UniProt P45452), entry Cc1cncc(C(CS(=O)(=O)c2ccc(OCc3cc(C)nc4c(F)cccc34)cc2)N(O)C=O)c1 (stereo not shown)
a: 4.74

q: Short answer please: pIC50, Human MMP13 (Homo sapiens, UniProt P45452), entry Cc1cc(Cl)cc(COc2ccc(S(=O)(=O)CC(C3CCC4(CC3)OCCO4)N(O)C=O)cc2)c1 (stereo not shown)
a: 5.70

q: Short answer please: pIC50, Human MMP13 (Homo sapiens, UniProt P45452), entry Cc1cc(COc2ccc(S(=O)(=O)CC(C(Cl)=C3CCOCC3)N(O)C=O)cc2)c2ccccc2n1 (stereo not shown)
a: 4.15

q: Short answer please: pIC50, Human MMP13 (Homo sapiens, UniProt P45452), entry Cc1cc(COc2ccc(S(=O)(=O)CC(C=C3CCOCC3)N(O)C=O)cc2)c2ccccc2n1 (stereo not shown) [Example I-9]
a: 4.60

q: Short answer please: pIC50, Human MMP13 (Homo sapiens, UniProt P45452), entry Cc1cc(Cl)cc(COc2ccc(S(=O)(=O)CC(CC3CCC4(CC3)OCCO4)N(O)C=O)cc2)c1 (stereo not shown)
a: 4.74

---

- targetOfAssay: TACE (Homo sapiens, UniProt P78536)
- Construct: made in house; host or cells: mammalian cells or insect cells
- Sequence (P78536 215-824): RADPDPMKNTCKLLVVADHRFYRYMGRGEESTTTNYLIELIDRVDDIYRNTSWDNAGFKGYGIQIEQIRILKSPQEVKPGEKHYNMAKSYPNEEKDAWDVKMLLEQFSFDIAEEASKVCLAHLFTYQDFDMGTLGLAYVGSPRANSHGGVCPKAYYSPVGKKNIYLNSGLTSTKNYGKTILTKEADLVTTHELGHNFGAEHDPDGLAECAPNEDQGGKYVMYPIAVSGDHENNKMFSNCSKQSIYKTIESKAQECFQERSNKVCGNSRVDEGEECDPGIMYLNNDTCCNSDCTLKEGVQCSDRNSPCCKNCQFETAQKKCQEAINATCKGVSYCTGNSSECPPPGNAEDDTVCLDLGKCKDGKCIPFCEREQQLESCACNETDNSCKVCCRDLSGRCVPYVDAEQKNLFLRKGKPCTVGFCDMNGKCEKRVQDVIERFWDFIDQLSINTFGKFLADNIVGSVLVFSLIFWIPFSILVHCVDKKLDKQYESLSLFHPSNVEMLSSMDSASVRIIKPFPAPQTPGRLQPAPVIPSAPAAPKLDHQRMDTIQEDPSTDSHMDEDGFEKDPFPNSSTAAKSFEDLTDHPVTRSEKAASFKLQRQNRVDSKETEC
- testDetails: TACE inhibition experiment (in vitro)
- Type: biochemical
Please respond with reported pIC50 for every item in the list.
# pIC50: negative log10 of molar concentration; output just the value

q: Short answer please: pIC50, TACE (Homo sapiens, UniProt P78536), entry Cc1ccc2nc(C)cc(COc3ccc(S(=O)(=O)CC(c4ccccc4C)N(O)C=O)cc3)c2c1 (stereo not shown) [Example I-77]
a: 7.59

q: Short answer please: pIC50, TACE (Homo sapiens, UniProt P78536), entry Cc1cc(COc2ccc(S(=O)(=O)CC(CC3CCN(S(C)(=O)=O)CC3)N(O)C=O)cc2)c2ccccc2n1 (stereo not shown) [Example I-70]
a: 7.96

q: Short answer please: pIC50, TACE (Homo sapiens, UniProt P78536), entry CCC(CC)C(=O)N1CCC(=CC(CS(=O)(=O)c2ccc(OCc3cc(C)nc4ccccc34)cc2)N(O)C=O)C(C)C1 (stereo not shown) [Example I-63]
a: 8.70

q: Short answer please: pIC50, TACE (Homo sapiens, UniProt P78536), entry COc1ccc(CCC(CS(=O)(=O)c2ccc(OCc3cc(C)nc4ccccc34)cc2)N(O)C=O)cc1 (stereo not shown) [Example I-35]
a: 7.49

q: Short answer please: pIC50, TACE (Homo sapiens, UniProt P78536), entry Cc1cncc(C(CS(=O)(=O)c2ccc(OCc3cc(C)nc4ccccc34)cc2)N(O)C=O)c1 (stereo not shown) [Example I-31]
a: 8.55

q: Short answer please: pIC50, TACE (Homo sapiens, UniProt P78536), entry Cc1cc(COc2ccc(S(=O)(=O)CC(C3CCOCC3)N(O)C=O)cc2)c2ccccc2n1 (stereo not shown) [Example I-49]
a: 7.89

q: Short answer please: pIC50, TACE (Homo sapiens, UniProt P78536), entry O=CN(O)C(C=C1CCC(=O)CC1)CS(=O)(=O)c1ccc(OCc2ccc3ccccc3n2)cc1 (stereo not shown) [Example I-84]
a: 6.26
